Hello, the source for this data is ChEMBL document CHEMBL2016529, in case you need it.

# System: Rattus norvegicus
# method-summary: Antihypertensive activity in rat spontaneous hypertensive model assessed as reduction in diastolic blood pressure at 15 mg/kg, po up to 10 hrs
# Assay type: functional, organism-based
# Set-up: dose 15 mg/kg
# experimental-parameters: Artery
Active and inactive are the calls of the source. No cut-off for these calls is given here.
measured-quantity: Activity

substance_smiles=CCCC(=O)N(Cc1ccc(-c2ccccc2-c2nc(=O)o[nH]2)cc1)[C@@H](CC(C)C)C(=O)O assay_value=Active
substance_smiles=CCC(=O)N(Cc1ccc(-c2ccccc2-c2nc(=O)o[nH]2)cc1)[C@H](C(=O)O)C(C)C assay_value=Active
substance_smiles=CCCCC(=O)N(Cc1ccc(-c2ccccc2-c2nnn[nH]2)cc1)[C@H](C(=O)O)C(C)C assay_value=Active

###

# method-summary: Acute toxicity in ICR rat assessed as mortality at 2924 mg/kg, administered intragastrically after 14 days relative to control
# Format: organism-based
# Set-up: dose 2924 mg/kg, route intragastric
# experimental-parameters: in vivo, po, read-out: Activity
measured-quantity: mortality at 336 h (%)
Your answer should be a plain number; it is taken to be in %.

Indicate its recorded mortality at 336 h; the compound in question is `CCCC(=O)N(Cc1ccc(-c2ccccc2-c2nc(=O)o[nH]2)cc1)[C@H](C(=O)O)C(C)C`
60
